# Study target: human orexin 2 receptor (Homo sapiens, UniProt O43614)
# Construct: CHO-K1 cells stably expressing the full-length human orexin 2 receptor and the aequorin photoprotein; expressed in transfected cells; host or cells: CHO-K1 (CHO-K1/hOx2)
# Sequence (O43614 whole entry): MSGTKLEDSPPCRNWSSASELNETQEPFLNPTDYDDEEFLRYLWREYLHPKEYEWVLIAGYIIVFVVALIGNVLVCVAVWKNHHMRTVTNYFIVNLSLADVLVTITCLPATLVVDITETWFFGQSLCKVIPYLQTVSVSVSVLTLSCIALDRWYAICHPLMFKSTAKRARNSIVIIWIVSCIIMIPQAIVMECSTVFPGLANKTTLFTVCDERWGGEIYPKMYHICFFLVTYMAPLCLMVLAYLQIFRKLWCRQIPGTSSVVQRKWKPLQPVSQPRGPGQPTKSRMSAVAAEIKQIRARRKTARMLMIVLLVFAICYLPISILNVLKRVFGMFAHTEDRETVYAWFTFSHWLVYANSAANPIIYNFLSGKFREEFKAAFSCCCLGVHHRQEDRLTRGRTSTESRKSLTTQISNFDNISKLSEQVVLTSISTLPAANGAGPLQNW
# Assay explanation: Assay B: in vitro testing of OX2R potency, OX2R IP1
# Format: cell-based
# Stated conditions: Table 4a; 0.5 nM Orexin A
Response field class: enum, chosen by comparing Kb against 0: < 7 nM; 1: ≥ 7 nM and < 20 nM; 2: ≥ 20 nM

Previously resolved entries follow.
- CCN(C(=O)c1cc(C)ccc1-n1nccn1)[C@@H](C)CNc1ccc(Cl)cn1: 0
- CCN(C(=O)c1c(-n2nccn2)ccc(C)c1F)[C@@H](C)CNc1ncc(C(F)(F)F)cn1: 2
- CCN(C(=O)c1ccc(Cl)cc1-n1nccn1)[C@@H](C)CNc1ncc(C(F)(F)F)cn1: 2

Task: Into which bin does this compound go? CCN(C(=O)c1ccc(C)c(C)c1-n1nccn1)[C@@H](C)CNc1ccc(Cl)cn1
Output: 2

Task: Field: class (Kb) — entry: CCN(C(=O)c1cc(C)ccc1-n1nccn1)[C@@H](C)CN(C)c1ncc(C(F)(F)F)cn1
Output: 1

Task: Exam item: assign CC[C@@H](CNc1ncc(C(F)(F)F)cn1)N(C)C(=O)c1cc(Cl)ccc1-n1nccn1 [Ex 39 in WO2016/ 034882, reference compound] to the correct category.
Output: 2

Task: Which category fits this record: CC[C@@H](CNc1ncc(C(F)(F)F)cn1)N(CC)C(=O)c1nc(C)ccc1-n1nccn1 [Ex 73 in WO2016/ 034882, reference compound]
Output: 2

Task: Into which category would you place CCN(C(=O)c1cc(OC)ccc1-n1nccn1)[C@@H](C)CNc1ncc(C(F)(F)F)cn1 ?
Output: 1

Task: GET /class?item= CCN(C(=O)c1cccc(F)c1-n1nccn1)[C@@H](C)CNc1ccc(Cl)cn1
Output: 1

Task: State the class of the compound shown: CCN(C(=O)c1nc(C)sc1-c1ccc(F)cc1)[C@@H](C)CNc1ncc(C(F)(F)F)cn1
Output: 1

Task: Bin? CCN(C(=O)c1ccc(C)cc1-n1nccn1)[C@@H](C)CNc1ncc(C(F)(F)F)cn1
Output: 2

Task: Assign a category based on measured Kb for CCN(C(=O)c1ccc(OC)cc1-n1nccn1)[C@@H](C)CNc1ncc(C(F)(F)F)cn1 and give only the class name.
Output: 2

Task: Form field 'band' for CCN(C(=O)c1cccc(F)c1-n1nccn1)[C@@H](C)CNc1ncc(C(F)(F)F)cc1F
Output: 1

====

Listed molecules paired with reported Kb
# Study target: human Orexin 1 receptor (Homo sapiens, UniProt O43613)
# Construct: CHO-K1 cells stably expressing the full-length human Orexin 1 receptor and the aequorin photoprotein; expressed in transfected cells; host or cells: CHO-K1 (CHO-K1/hOx1)
# Sequence (O43613 whole entry): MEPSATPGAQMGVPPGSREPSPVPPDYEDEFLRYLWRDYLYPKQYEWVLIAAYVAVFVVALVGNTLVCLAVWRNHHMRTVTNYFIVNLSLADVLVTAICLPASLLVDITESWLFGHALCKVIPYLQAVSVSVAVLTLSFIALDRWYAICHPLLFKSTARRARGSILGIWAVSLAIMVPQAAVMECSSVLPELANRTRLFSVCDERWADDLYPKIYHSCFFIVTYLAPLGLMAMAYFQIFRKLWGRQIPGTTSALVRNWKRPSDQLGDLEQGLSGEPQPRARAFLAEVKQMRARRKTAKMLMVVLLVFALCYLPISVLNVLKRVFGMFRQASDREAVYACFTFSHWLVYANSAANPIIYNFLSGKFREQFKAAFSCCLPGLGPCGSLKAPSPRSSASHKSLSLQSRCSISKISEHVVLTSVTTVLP
# Assay explanation: Assay A: in vitro testing of OX1R potency, OX1R IP1
# Assay type: cell-based
# Stated conditions: Table 4a; 50 nM Orexin A

* CCN(C(=O)c1cc(C)ccc1-n1nccn1)[C@@H](C)CNc1ccc(Cl)cn1 | 0.014 nM

Task: Return reported Kb; argument: CCN(C(=O)c1cc(OC)ccc1-n1nccn1)[C@@H](C)CNc1ncc(C(F)(F)F)cn1
Output: 0.02 nM

Task: Would you kindly share the measured Kb for CCN(C(=O)c1ccc(C)c(C)c1-n1nccn1)[C@@H](C)CNc1ccc(Cl)cn1 ?
Output: 0.023 nM

Task: Which Kb is reported for this molecule? CC[C@@H](CNc1ncc(C(F)(F)F)cn1)N(C)C(=O)c1nc(C)ccc1-c1ncccn1 [Ex 84 in WO2016/ 034882, reference compound]
Output: 2.33 nM

Task: Give its Kb value. Item: CCN(C(=O)c1cc(C)ccc1-n1nccn1)[C@@H](C)CN(C)c1ccc(Cl)cn1
Output: 0.0053 nM

Task: Any idea what Kb was measured for CCN(C(=O)c1cccc(F)c1-c1ncccn1)[C@@H](C)CNc1ccc(C(F)(F)F)cn1 ?
Output: 0.015 nM

Task: Please report the recorded Kb for CC[C@@H](CNc1ccc(C(F)(F)F)cn1)N(CC)C(=O)c1nc(C)ccc1-n1nccn1 [Ex 71 in WO2016/ 034882, reference compound] .
Output: 0.03 nM

Task: # get_value(readout='Kb', item= CCN(C(=O)c1nc(C)sc1-c1ccc(F)cc1)[C@@H](C)CNc1ncc(C(F)(F)F)cn1 )
Output: 0.022 nM

Task: Entry CCN(C(=O)c1cc(F)ccc1-c1ncccn1)[C@@H](C)CNc1ncc(C(F)(F)F)cc1F has what Kb?
Output: 0.012 nM

Task: Quick check: Kb of CCN(C(=O)c1ccc(C)cc1-n1nccn1)[C@@H](C)CNc1ncc(C(F)(F)F)cn1 ?
Output: 0.012 nM

Task: Would you mind telling me what Kb value was observed for CCN(C(=O)c1ccc(Cl)cc1-n1nccn1)[C@@H](C)CNc1ncc(C(F)(F)F)cn1 ?
Output: 0.025 nM

Task: What does the data say about its Kb? Entry: CC[C@@H](CNc1ncc(C(F)(F)F)cn1)N(C)C(=O)c1c(F)cccc1-n1nccn1 [Ex 91 in WO2016/ 034882, reference compound]
Output: 3.96 nM

Task: Name the recorded Kb for CCN(C(=O)c1cc(C)ccc1-n1nccn1)[C@@H](C)CNc1ncc(C(F)(F)F)cn1 .
Output: 0.011 nM

Task: I have this molecule here, CCN(C(=O)c1cccc(F)c1-c1ncccn1)[C@@H](C)CNc1ccc(F)c(C(F)(F)F)n1 , and I need its recorded Kb.
Output: 0.019 nM

Task: So what's the measured Kb for this one? CCN(C(=O)c1cc(C)ccc1-n1nccn1)[C@@H](C)CN(C)c1ncc(C(F)(F)F)cn1
Output: 0.02 nM
